STUDY SYSTEM: Metabotropic glutamate receptor 8 (Rattus norvegicus) (UniProt P70579)
Sequence (P70579 whole entry, looked up): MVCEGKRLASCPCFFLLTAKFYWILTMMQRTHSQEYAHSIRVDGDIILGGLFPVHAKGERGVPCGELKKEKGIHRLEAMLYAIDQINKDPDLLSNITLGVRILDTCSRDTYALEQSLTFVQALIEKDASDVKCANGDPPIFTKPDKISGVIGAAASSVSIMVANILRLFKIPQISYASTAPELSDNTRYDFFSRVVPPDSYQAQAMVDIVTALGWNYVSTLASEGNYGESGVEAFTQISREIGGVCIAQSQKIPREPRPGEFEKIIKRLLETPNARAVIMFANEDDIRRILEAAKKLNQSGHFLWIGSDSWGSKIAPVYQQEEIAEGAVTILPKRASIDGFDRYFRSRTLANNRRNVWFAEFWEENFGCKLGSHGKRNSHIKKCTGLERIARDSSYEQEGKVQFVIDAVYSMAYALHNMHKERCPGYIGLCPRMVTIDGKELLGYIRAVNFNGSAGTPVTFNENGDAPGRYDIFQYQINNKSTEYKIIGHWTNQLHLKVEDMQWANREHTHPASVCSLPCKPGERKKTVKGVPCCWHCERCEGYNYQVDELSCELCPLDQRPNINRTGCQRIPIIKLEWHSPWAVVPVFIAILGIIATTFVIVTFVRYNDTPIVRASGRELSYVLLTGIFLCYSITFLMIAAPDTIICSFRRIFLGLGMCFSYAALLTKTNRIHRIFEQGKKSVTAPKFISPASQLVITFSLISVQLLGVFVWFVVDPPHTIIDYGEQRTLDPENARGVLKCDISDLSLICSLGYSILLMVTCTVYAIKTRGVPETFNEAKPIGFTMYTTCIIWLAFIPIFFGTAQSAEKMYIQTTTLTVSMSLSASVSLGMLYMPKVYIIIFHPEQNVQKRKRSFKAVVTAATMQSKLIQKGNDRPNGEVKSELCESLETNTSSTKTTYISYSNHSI
MEASUREMENT DESCRIPTION: mGlu8-mediated intracellular calcium response modulators – cell-based, HEK293 rmGlu8, Gqi9 chimera, Fluo-4 calcium, counter-screen for GIRK activator project, confirmation (AID 623869)
ASSAY SETUP: HEK293 rmGlu8/Gqi9 calcium flux, Fluo-4 fluorescence; glutamate at EC20 added after compound
About 75 (4%) of roughly 2,100 compounds were called active. What follows is part of a selection rich in actives, with near analogues and random picks from the rest.

| SMILES REPRESENTATION | outcome |
| --- | --- |
| N#C/C(=C/C=C/c1ccccc1)C(=O)Nc1ccccc1 | inactive; 0 |
| Cc1[nH]n2c(=O)cc(C(C)(C)C)nc2c1-c1ccccc1 | inactive; 0 |
| Cc1ccc(OCC(=O)NNC(=O)C(=O)NC(C)(C)C)cc1 | inactive; 0 |
| COCCNC(=O)CCCCCn1c(=S)[nH]c2ccccc2c1=O | inactive; 0 |
| Cc1ccc(C)c(OCC(=O)Nc2nc3ccc([N+](=O)[O-])cc3s2)c1C | inactive; 0 |
| COC(=O)c1ccc(CSc2nnc(Nc3ccccc3OC)s2)o1 | inactive; 0 |
| Cc1onc(-c2ccccc2)c1C(=O)NC(=S)Nc1sc2c(c1C#N)CCCC2 | inactive; 0 |
| CCNC(=S)Nc1scc(-c2ccccc2)c1C(=O)OCC | inactive; 0 |
| Cc1ccc(NC(=S)c2nc3ccccc3[nH]2)c(C)c1 | inactive; 0 |
| CCOC(=O)c1c(NC(=O)CSc2nnc(-c3ccncc3)n2Cc2ccco2)sc(C(C)=O)c1C | inactive; 0 |
| COC(=O)c1sc(NC(=S)NC(=O)c2ccccc2Cl)nc1C | inactive; 0 |
| COc1ccc(NC(=O)C(=O)NNC(=O)c2cccs2)c(OC)c1 | inactive; 0 |
| CC1(C)Cc2c(sc3[nH]c(=S)n(Cc4ccco4)c(=O)c23)CO1 | inactive; 0 |
| Cc1ccc(C(=O)CC(=O)c2cc(Cl)ccc2O)cc1 | inactive; 0 |
| C/C(=N/NC(=O)c1cc(Cl)ccc1O)C12CC3CC(CC(C3)C1)C2 | active; 1 |
| CCNC(=S)Nc1nc2c(cc1C(=O)OCC)CCCC2 | active; 2 |
| C=CCNC(=S)Nc1nc2c(cc1C(=O)OCC)CCCC2 | active; 2 |
| CCCCOC(=O)c1ccc(NC(=S)NC(=O)c2c(Cl)cnn2CC)cc1 | inactive; 0 |
| Cc1cccc(C(=O)CC(=O)c2cc(Cl)ccc2O)c1 | inactive; 0 |
| Cc1onc(-c2ccccc2)c1C(=O)NNC(=S)NC(=O)c1ccc(Br)cc1 | active; 1 |

----------
STUDY SYSTEM: Metabotropic glutamate receptor 8 (Rattus norvegicus) (UniProt P70579)
MEASUREMENT DESCRIPTION: mGlu8-mediated intracellular calcium response modulators – cell-based, HEK293 rmGlu8, Gqi9 chimera, Fluo-4 calcium, counter-screen for GIRK activator project, confirmation (AID 623869)
ASSAY SETUP: HEK293 rmGlu8/Gqi9 calcium flux, Fluo-4 fluorescence; glutamate at EC20 added after compound
Hit rate of the full screen: of about 2,100 compounds, about 75 (4%) were called active.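 The calls were made as follows: active = calcium fluorescence trace judged by eye to show a response, as agonist, enhancer of the glutamate response, or inhibitor; inactive = trace judged by eye to show no response.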 The full list was thinned out, with actives kept by preference.
Possible outcomes: 1.0 for active, 0.0 for inactive

| SMILES REPRESENTATION | STUDY SYSTEM | LABEL CLASS |
| --- | --- | --- |
| FC(F)(F)c1cnc(NNC(=S)Nc2ccccc2Cl)c(Cl)c1 | Metabotropic glutamate receptor 8 (Rattus norvegicus) (UniProt P70579) | 1.0 |
| O=C(NC(=S)N1CCN(c2ccc(Cl)cc2[N+](=O)[O-])CC1)c1ccco1 | Metabotropic glutamate receptor 8 (Rattus norvegicus) (UniProt P70579) | 0.0 |
| COC(=O)c1cc(CSc2nc3ccc(C)cc3[nH]2)oc1C | Metabotropic glutamate receptor 8 (Rattus norvegicus) (UniProt P70579) | 0.0 |
| C=CCn1c(O)c(N=NC(=O)OC(C)(C)C)c2ccccc21 | Metabotropic glutamate receptor 8 (Rattus norvegicus) (UniProt P70579) | 0.0 |
| Cc1cccc(OCC(=O)Nc2ccccc2N2CCN(C(=O)C(C)C)CC2)c1C | Metabotropic glutamate receptor 8 (Rattus norvegicus) (UniProt P70579) | 0.0 |
| CC(C)C(=O)Nc1ccccc1N1CCN(C(=O)c2ccccc2)CC1 | Metabotropic glutamate receptor 8 (Rattus norvegicus) (UniProt P70579) | 0.0 |
| CCCCNC(=S)NC(=O)c1ccc([N+](=O)[O-])cc1 | Metabotropic glutamate receptor 8 (Rattus norvegicus) (UniProt P70579) | 0.0 |
| CCOC(=O)c1c(NC(=S)NC)sc2c1CC(C)(C)SC2 | Metabotropic glutamate receptor 8 (Rattus norvegicus) (UniProt P70579) | 0.0 |
| Cc1ccc(NC(=S)NNc2ncc(C(F)(F)F)cc2Cl)c(C)c1 | Metabotropic glutamate receptor 8 (Rattus norvegicus) (UniProt P70579) | 0.0 |
